Assay: qHTS assay to identify small molecule antagonists of the estrogen related receptor (ERR) signaling pathway from Tox21 library - cell viability counter screen (AID 1224834); also: nearly all actives have a fitted effect of over 30% in size
Conditions: ERR reporter cells viability, CellTiter-Fluor, 17.5 h; series mostly up to 92.4 µM
Records with an inconclusive call do not appear. Calls of active or inactive are those of the source. Calls follow the shape of the dose curve; as a rule, active = well fitted cell-killing curve with a large enough effect in the repeat runs; inconclusive = weak or mixed curves; inactive = flat fitted curve, though single readings scatter.
Choose the fitting class; nothing outside t (active), f (inactive) is accepted.

Ask | // param item: CCCCCCCCCCCCCCCCCCNC(=O)OC1CCN(C(=O)OC[C@H](COC(=O)N(Cc2cccc[n+]2CC)C(=O)c2ccccc2OC)OC)CC1 ; yields the recorded call
Reply | t

Ask | // param item: CCOC=C(C(=O)OCC)C(=O)OCC ; yields the recorded call
Reply | f

Ask | // param item: CCN(CC)c1ccc2c(c1)Oc1cc(N(CC)CC)ccc1C21OC(=O)c2ccccc21 ; yields the recorded call
Reply | t

Ask | // param item: O=C(Cl)c1ccc(Cl)cc1Cl ; yields the recorded call
Reply | f

Ask | // param item: CCCCCCCCSCc1cc(C)c(O)c(CSCCCCCCCC)c1 ; yields the recorded call
Reply | f

Ask | // param item: CCN(CC)c1ccc(N=Nc2ccccc2)cc1 ; yields the recorded call
Reply | t

Ask | // param item: Clc1cccc(Cl)n1 ; yields the recorded call
Reply | f

Ask | // param item: c1ccc(-c2ccc(C(c3ccccc3)n3ccnc3)cc2)cc1 (configuration not stated) ; yields the recorded call
Reply | t

Ask | // param item: CN1CCN(CCCN2c3ccccc3Sc3ccc(Cl)cc32)CC1 ; yields the recorded call
Reply | t

Ask | // param item: O=C(N[C@H](CO)[C@H](O)c1ccc([N+](=O)[O-])cc1)C(Cl)Cl ; yields the recorded call
Reply | f

Ask | // param item: Cc1cc(C)c(O)c(C(C)(C)C)c1 ; yields the recorded call
Reply | f

Ask | // param item: O=C(c1ccccc1)c1ccc(Cl)cc1 ; yields the recorded call
Reply | f
